// provenance: patent US20260274891A1

Readings of Relative Activity % for the listed molecules
TARGET UNDER TEST: human κ opioid receptor (OPRK1) (Homo sapiens, UniProt P41145)
Construct: expressed in transfected cells; host or cells: CHO-K1
Sequence (P41145 whole entry): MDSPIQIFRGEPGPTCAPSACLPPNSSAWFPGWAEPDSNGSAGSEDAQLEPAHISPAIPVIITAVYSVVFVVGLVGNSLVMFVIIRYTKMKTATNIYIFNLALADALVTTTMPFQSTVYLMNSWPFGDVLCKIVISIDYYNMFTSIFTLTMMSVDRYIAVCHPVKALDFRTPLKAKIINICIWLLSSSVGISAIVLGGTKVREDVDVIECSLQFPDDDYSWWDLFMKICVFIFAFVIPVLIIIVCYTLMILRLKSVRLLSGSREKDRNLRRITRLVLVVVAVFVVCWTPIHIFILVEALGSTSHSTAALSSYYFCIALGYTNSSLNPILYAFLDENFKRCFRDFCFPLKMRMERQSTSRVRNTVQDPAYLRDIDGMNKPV
METHOD NOTES: Determination of activities of κ receptor agonists: inhibition of forskolin-stimulated cAMP release (HTRF) in stably transfected CHO-K1 cells
Format: cell-based
RUN PARAMETERS: relative to Difelikefalin = 100.0
From the text: Gi-coupled human κ opioid receptor (OPRK1), upon stimulation with its specific opioid receptor agonists, can inhibit the intracellular adenylate cyclase pathway, and decrease cAMP levels. Forskolin can stimulate cAMP release in cell lines highly expressing opioid receptors. By stimulating cell lines stably transfected with opioid receptors, the inhibitory effect of a test compound on forskolin-stimulated cAMP release can be measured to determine the activity of the compound. […]
Square brackets hold non-standard residues; d marks the D form. Peptide text beside a SMILES is read from it. * marks the point of attachment. Piperidinyl(4-NH2,4-CONH2) = NC(=O)C1(N)CCN(*)CC1; X10 = NCCCC[C@@H](NC(=O)C1(N)CCN(*)CC1)C(=O)O; X6 = NCCCC[C@H](NC(=O)C1(N)CCN(*)CC1)C(N)=O; dAla(cPr) = N[C@H](CC1CC1)C(=O)O; iPr = CC(C)*
# unit: % | format: bare number

CC(C)C[C@@H](NC(=O)[C@@H](Cc1ccc(OC(C)C)cc1)NC(=O)[C@H](N)Cc1ccccc1)C(=O)N[C@H](CCCCN)C(=O)N1CCC(N)(C(=O)N[C@H](CCCCN)C(=O)O)CC1 [Compound 102] (H-[dF][dY](iPr)[dL][dK]-X10; N-terminus assumed)    831.8
CCOc1ccc(C[C@@H](NC(=O)[C@H](N)Cc2ccccc2)C(=O)N[C@H](CC2CC2)C(=O)N[C@H](CCCCN)C(=O)N2CCC(N)(C(N)=O)CC2)cc1 [Compound 67] (H-[dF][dY](Et)[dAla(cPr)][dK]-{Piperidinyl(4-NH2,4-CONH2)}; N-terminus assumed)    477.7

The measured Relative Activity % associated with COc1ccc(C[C@@H](NC(=O)[C@H](N)Cc2ccccc2)C(=O)N[C@H](CC(C)C)C(=O)N[C@H](CCCCN)C(=O)N2CCC(N)(C(=O)N[C@@H](CCCCN)C(N)=O)CC2)cc1 [Compound 87] (H-[dF][dY](Me)[dL][dK]-X6; N-terminus assumed) reads 1438.9

Per the records, this molecule ( CC(C)C[C@@H](NC(=O)[C@@H](Cc1ccc(I)cc1)NC(=O)[C@H](N)Cc1ccccc1)C(=O)N[C@H](CCCCN)C(=O)N1CCC(N)(C(=O)O)CC1 ) has Relative Activity % equal to 505.6

###

TARGET UNDER TEST: human κ opioid receptor (OPRK1) (Homo sapiens, UniProt P41145)
Construct: expressed in transfected cells; host or cells: CHO-K1
METHOD NOTES: Determination of activities of κ receptor agonists: inhibition of forskolin-stimulated cAMP release (HTRF) in stably transfected CHO-K1 cells
Assay type: cell-based
RUN PARAMETERS: relative to Difelikefalin = 100.0
From the text: Gi-coupled human κ opioid receptor (OPRK1), upon stimulation with its specific opioid receptor agonists, can inhibit the intracellular adenylate cyclase pathway, and decrease cAMP levels. Forskolin can stimulate cAMP release in cell lines highly expressing opioid receptors. By stimulating cell lines stably transfected with opioid receptors, the inhibitory effect of a test compound on forskolin-stimulated cAMP release can be measured to determine the activity of the compound. […]
Square brackets hold non-standard residues; d marks the D form. Side chains are listed from the residue outwards. Peptide text beside a SMILES is read from it. * marks the point of attachment. X12 = CCOc1ccc(C[C@@H](NC(=O)[C@H](N)Cc2ccccc2)C(=O)*)cc1; X1 = NCCCC[C@@H](NC(=O)C1(N)CCN(*)CC1)C(N)=O; X4 = NCCCC[C@H](NC(=O)C1(N)CCN(*)CC1)C(=O)O; dAla(cPr) = N[C@H](CC1CC1)C(=O)O; Api = NC1(C(=O)O)CCNCC1
Values of Relative Activity % greater than or equal to 500% map to Met; values below map to Not met.

Answered examples (5):
CCOc1ccc(C[C@@H](NC(=O)[C@H](N)Cc2ccccc2)C(=O)N[C@H](CC(C)C)C(=O)N[C@H](CCCCN)C(=O)N2CCC(N)(C(=O)N[C@@H](CCCCN)C(=O)O)CC2)cc1 [Compound 4] (H-[dF][dY](Et)[dL][dK]-X4; N-terminus assumed)    Met
CC(C)C[C@@H](NC(=O)[C@@H](Cc1ccc(Br)cc1)NC(=O)[C@H](N)Cc1ccccc1)C(=O)N[C@H](CCCCN)C(=O)N1CCC(N)(C(=O)N[C@@H](CCCCN)C(=O)O)CC1    Met
CCOc1ccc(C[C@@H](NC(=O)[C@H](N)Cc2ccccc2)C(=O)N[C@H](CC2CC2)C(=O)N[C@H](CCCCN)C(=O)N2CCC(N)(C(=O)N[C@H](CCCCN)C(N)=O)CC2)cc1 [Compound 71] (H-[dF][dY](Et)[dAla(cPr)][dK]-X1; N-terminus assumed)    Met
CCc1ccc(C[C@@H](NC(=O)[C@H](N)Cc2ccccc2)C(=O)N[C@H](CC(C)C)C(=O)N[C@H](CCCCN)C(=O)N2CCC(N)(C(=O)N[C@H](CCCCN)C(=O)O)CC2)cc1    Not met
CCOc1ccc(C[C@@H](NC(=O)[C@H](N)Cc2ccccc2)C(=O)N[C@H](CC(C)C)C(=O)N[C@H](CCCCN)C(=O)N2CCC(N)(C(=O)NCC(=O)NCC(=O)NCC(=O)N[C@@H](CCCCN)C(=O)O)CC2)cc1 [Compound 56] (H-[Api]([dK-dL-X12])GGGK-OH; N-terminus assumed)    Met

Hi team, for CCc1ccc(C[C@@H](NC(=O)[C@H](N)Cc2ccccc2)C(=O)N[C@H](CC(C)C)C(=O)N[C@H](CCCCN)C(=O)N2CCC(N)(C(=O)N[C@@H](CCCCN)C(=O)O)CC2)cc1 , is the recorded Relative Activity % at or above 500%?
Not met

Threshold query (Relative Activity % >= 500%) on CCc1ccc(C[C@@H](NC(=O)[C@H](N)Cc2ccccc2)C(=O)N[C@H](CC(C)C)C(=O)N[C@H](CCCCN)C(=O)N2CCC(N)(C(=O)N[C@@H](CCCCN)C(N)=O)CC2)cc1
Not met
